# assay-overview: self-splicing fitness, log relative to wild type (ln ratio); higher = more splicing; Tetrahymena group I intron in knt gene, E. coli kanamycin selection, DiMSum; sequences stand for … in CUCUCU…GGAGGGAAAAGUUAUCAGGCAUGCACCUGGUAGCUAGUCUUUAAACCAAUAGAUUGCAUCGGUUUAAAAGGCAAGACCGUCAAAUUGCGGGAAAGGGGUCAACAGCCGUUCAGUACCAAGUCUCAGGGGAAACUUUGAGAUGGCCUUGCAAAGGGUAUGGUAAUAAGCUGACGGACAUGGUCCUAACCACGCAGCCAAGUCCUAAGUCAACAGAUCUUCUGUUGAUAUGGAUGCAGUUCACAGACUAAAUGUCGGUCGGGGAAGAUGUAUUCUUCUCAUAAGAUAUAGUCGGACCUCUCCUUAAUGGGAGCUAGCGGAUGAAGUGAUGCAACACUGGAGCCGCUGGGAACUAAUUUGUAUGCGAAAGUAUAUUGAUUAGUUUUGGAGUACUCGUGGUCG;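 also: selection with 25 µg/mL kanamycin versus none on LB agar overnight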
# run-parameters: 30 °C
Classification field: enter t for self-splicing fitness (ln) values not below -3, f for values below it.

Here's what some known entries look like.
{"columns": ["chain", "label-value"],
 "data": [
  ["UCCAAGCAAUAUUACGUGCU", "f"],
  ["AGACAGCAAUAUUACGUACG", "t"],
  ["CACAAGCAAUAUUACGACGU", "t"],
  ["AUACAGCAAUAUUACGGUGU", "f"],
  ["GUGAAGCAAUAUUACGGGGG", "t"]
]}

Is self-splicing fitness (ln) for "GGCUAGCAAUAUUACGUGGC" at or above -3?
t

====

# assay-overview: self-splicing fitness, log relative to wild type (ln ratio); higher = more splicing; Tetrahymena group I intron in knt gene, E. coli kanamycin selection, DiMSum; sequences stand for … in CUCUCU…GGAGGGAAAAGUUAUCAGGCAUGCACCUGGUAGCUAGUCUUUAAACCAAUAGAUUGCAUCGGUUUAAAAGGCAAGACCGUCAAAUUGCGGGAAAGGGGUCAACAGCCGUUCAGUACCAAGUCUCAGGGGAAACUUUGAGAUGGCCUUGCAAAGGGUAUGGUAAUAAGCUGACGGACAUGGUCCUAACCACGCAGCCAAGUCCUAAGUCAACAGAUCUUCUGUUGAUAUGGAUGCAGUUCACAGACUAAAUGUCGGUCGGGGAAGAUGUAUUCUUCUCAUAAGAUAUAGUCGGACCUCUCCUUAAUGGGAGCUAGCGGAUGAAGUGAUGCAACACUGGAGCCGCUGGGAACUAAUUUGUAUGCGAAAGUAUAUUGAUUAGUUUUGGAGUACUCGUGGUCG
# run-parameters: 30 °C
Think of -3 as a floor: if self-splicing fitness (ln) stands on it or above, it is True; beneath it, False.

{"columns": ["chain", "label-value"],
 "data": [
  ["CACAAGCAAUAUUACGGCAA", "True"],
  ["GACUAGCAAUAUUACGGCCA", "True"],
  ["AACGAGCAAUAUUACGAAGC", "False"],
  ["CUUAAGCAAUAUUACGAAAU", "False"],
  ["ACUGAGCAAUAUUACGCUGG", "False"],
  ["CACGAGCAAUAUUACGACAU", "False"],
  ["GAGGAGCAAUAUUACGGUUG", "False"],
  ["UGUGAGCAAUAUUACGUCAG", "True"]
]}

Say whether "CAAAAGCAAUAUUACGCCCU" shows self-splicing fitness (ln) of -3 or more.
True

Hello, I need to know if "GCCUAGCAAUAUUACGCCCU" has measured self-splicing fitness (ln) not below -3. Thanks!
True

// inclusive: self-splicing fitness (ln) at least -3? input: "CCCUAGCAAUAUUACGGAGC"
False

Does "AGGAAGCAAUAUUACGCAAA" have a reported self-splicing fitness (ln) of at least -3?
True

# bool: self-splicing fitness (ln) of "AGUCAGCAAUAUUACGUGGA" >= -3
True

Please indicate if the recorded self-splicing fitness (ln) for "AUAUAGCAAUAUUACGAGCC" meets or exceeds -3.
True

hey, is self-splicing fitness (ln) for this one >= -3? "AACUAGCAAUAUUACGUGGA"
True

Confirm if self-splicing fitness (ln) reported for the sequence "GACCAGCAAUAUUACGCCCG" is -3 or above.
True

// data source = the supplement of paper PMC7877785
